# experimental target: T1, IL-9-His recombinant protein (UniProt P15248 19-144)
# T1 construct: range 19-144; used as coating antigen in the ELISAs; also called IL9 (19-144)-His; not shown: His tag, C-terminal by the vector name
# T1 sequence (P15248 19-144 limits assumed, form in doubt): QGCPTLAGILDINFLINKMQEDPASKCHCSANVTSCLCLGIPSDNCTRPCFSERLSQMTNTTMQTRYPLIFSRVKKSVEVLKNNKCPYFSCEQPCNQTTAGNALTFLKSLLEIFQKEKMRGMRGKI
# experiment summary: ELISA on IL-9-His, 293F culture supernatant, antibody concentration 2 µg/mL
binders and their reported ELISA OD450
Your answer is read as OD450, so omit the unit and give the number.

Worked set:
{"binder": "38-D8-C7-G9 chimeric antibody (CA1) (antibody, V domains shown, also called CA1 antibody; human-mouse chimeric antibody CA1) VH: EVQLKQSGAELMKPGASVKLSCKATGYTFTGYWIEWVKLRPGHGLEWIGEILPGSGSTNYNEEFKGKATFTADTSSNTAYMQLNSLTTEDSAIYYCARRTYYYGIPEDYWGQGTSVTVSS VL: DIVMTQSQKFMSTSVGDRVSVTCKASQNVGTNVAWHQQKPGQSPKPLIYSASYRYSGVPDRFTGSGSGTDFTLTISNVQSEDLAEYFCQQYNSYPLTFGAGTKLELK", "outcome measure": "ELISA OD450", "quantitative result": 2.48}
{"binder": "22-F2-E9-C8 chimeric antibody (CA4) (antibody, V domains shown) VH: EVQVVESGPGLVKPSQSLSLTCSVTGSSFTSGYYWNWIRQFPGNKLEWMGYIRYDGSNNYNPSLKNRISITRDTSKNQFFLKLNSVTSEDTATYYCASYGSSYDAMDYWGQGTSVTVSS VL: DIQLTQPPASLSASVGETVTITCRASENIDSYLAWYQQKQGKSPQLLVYAATLLADGVPSRFSGSGSGTQYSLKINSLQSEDVARYYCQHYYSTPWTFGGGTKLELK", "outcome measure": "ELISA OD450", "quantitative result": 2.45}

QUERY: Bench note: what ELISA OD450 did 31-D6-B8-B8 chimeric antibody (CA2) (antibody, V domains shown) VH: EVQLKESGPGLVKPSQSLSLTCSVTGYSSTSGYYWNWIRQFPGNKLEWMGYIRYDGSSNHNPSLKNRISITRDTSKNQFFLKLNSVTTEDTATYYCASYGITYDAMDYWGQGTSVTVSS VL: DIQLTQPPASLSASVGETVTITCRASENIDSYLAWYQQKQGKSPQLLVYAATLLADGVPSRFSGSGSGTQYSLKINSLQSEDVARYYCQHYYSTPWTFGGGTKLELK show?
RESULT: 2.49

QUERY: // query: 29-B9-F5-B6 chimeric antibody (CA3) (antibody, V domains shown) VH: EVQLQESGAELMKPGASVKISCKATGYTFSSYWIEWVKQRPGHGLEWIGQILPGSGSNNYNERFKGKATFTADTSSNTAYMQLSSLTSEDSAVYYCAREGNYGEAWFAYWGQGTLVTVSA VL: DILLTQSPATLSVTPGDSVSLSCRASQSISNNLHWYQQKSHESPRLLIKYASQSMSGIPSRFSGSGSGTDFTLSINSVETEDFGMYFCQQSNSWPLTFGAGTKLELK
RESULT: 2.56

All figures here come from patent US20250122278A1.
